Assay: total protein half-life in vivo (active degradation + dilution); higher = more stable protein
Conditions: wild type E. coli NCM3722; growth: C-lim chemostat; doubling time 12 h
Collected total protein half-life in vivo values appear next to each entry.
assay-readout: total protein half-life in vivo (h)

# polymer-sequence, reported-measurement
records = [
    ("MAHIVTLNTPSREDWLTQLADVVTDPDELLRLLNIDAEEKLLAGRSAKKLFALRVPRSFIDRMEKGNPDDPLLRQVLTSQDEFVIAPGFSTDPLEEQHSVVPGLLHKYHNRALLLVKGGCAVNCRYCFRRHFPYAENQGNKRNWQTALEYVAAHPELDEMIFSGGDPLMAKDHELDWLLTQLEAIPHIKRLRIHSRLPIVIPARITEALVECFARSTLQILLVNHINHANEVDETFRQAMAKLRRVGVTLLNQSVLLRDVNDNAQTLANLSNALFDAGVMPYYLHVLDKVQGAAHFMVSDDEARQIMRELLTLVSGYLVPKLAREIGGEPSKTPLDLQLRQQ", 3.35),
    ("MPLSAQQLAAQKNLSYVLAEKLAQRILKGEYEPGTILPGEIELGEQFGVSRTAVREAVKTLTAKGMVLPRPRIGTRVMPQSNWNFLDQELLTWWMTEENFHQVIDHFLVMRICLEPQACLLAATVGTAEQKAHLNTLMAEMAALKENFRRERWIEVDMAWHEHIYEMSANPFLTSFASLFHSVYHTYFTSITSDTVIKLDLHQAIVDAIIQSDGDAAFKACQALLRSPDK", 12.2),
]

====

Assay: total protein half-life in vivo (active degradation + dilution); higher = more stable protein
Conditions: wild type E. coli NCM3722; growth: P-lim chemostat; doubling time 6 h
Is total protein half-life in vivo at least 4 h? Then TRUE. If not, FALSE.

# polymer-sequence, group-label
rows = [
    ("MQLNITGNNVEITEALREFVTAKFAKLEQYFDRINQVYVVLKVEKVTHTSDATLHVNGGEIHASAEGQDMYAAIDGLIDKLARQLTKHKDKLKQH [P0AFX0]", "TRUE"),
    ("MGMIGYFAEIDSEKINQLLESTEKPLMDNIHDTLSGLRRLDIDKRWDFLHFGLTGTSAFDPAKNDPLSRAVLGEHSLEDGIDGFLGLTWNQELAATIDRLESLDRNELRKQFSIKRLNEMEIYPGVTFSEELEGQLFASIMLDMEKLISAYRRMLRQGNHALTVIVG", "FALSE"),
    ("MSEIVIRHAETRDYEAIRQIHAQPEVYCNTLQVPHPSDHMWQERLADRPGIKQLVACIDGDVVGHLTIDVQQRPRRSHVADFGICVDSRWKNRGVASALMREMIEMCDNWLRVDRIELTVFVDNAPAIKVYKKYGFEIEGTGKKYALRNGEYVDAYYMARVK", "TRUE"),
    ("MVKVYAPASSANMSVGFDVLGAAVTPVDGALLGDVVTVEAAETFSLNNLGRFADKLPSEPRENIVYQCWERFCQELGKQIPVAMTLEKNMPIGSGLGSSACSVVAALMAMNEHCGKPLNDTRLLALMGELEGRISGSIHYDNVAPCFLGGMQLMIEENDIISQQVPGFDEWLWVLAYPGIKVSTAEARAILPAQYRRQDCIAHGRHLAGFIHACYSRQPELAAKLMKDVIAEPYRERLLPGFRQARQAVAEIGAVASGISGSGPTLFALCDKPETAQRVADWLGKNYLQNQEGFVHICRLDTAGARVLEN", "TRUE"),
    ("MRKLTALFVASTLALGAANLAHAADTTTAAPADAKPMMHHKGKFGPHQDMMFKDLNLTDAQKQQIREIMKGQRDQMKRPPLEERRAMHDIIASDTFDKVKAEAQIAKMEEQRKANMLAHMETQNKIYNILTPEQKKQFNANFEKRLTERPAAKGKMPATAE", "FALSE"),
]

====

total protein half-life in vivo: recorded values
Experiment: total protein half-life in vivo (active degradation + dilution); higher = more stable protein
Conditions: E. coli NCM3722 delta-smpB; growth: N-lim chemostat; doubling time 6 h

# polymer-sequence, total protein half-life in vivo (h)
rows = [
    ("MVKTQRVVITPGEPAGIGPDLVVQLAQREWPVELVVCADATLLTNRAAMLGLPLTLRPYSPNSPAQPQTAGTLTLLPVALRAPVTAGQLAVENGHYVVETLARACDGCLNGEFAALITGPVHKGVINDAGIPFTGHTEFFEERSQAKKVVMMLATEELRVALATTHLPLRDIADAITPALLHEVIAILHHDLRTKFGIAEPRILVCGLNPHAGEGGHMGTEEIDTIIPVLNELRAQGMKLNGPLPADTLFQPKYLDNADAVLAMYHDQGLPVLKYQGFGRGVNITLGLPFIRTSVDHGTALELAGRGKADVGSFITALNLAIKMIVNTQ", 4.72),
    ("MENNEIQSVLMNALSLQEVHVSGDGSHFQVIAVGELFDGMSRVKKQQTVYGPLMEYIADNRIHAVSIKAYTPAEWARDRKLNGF [P0A9W6]", 4.08),
    ("MHKAILNSDLIATKAGDVTVYNYDGETREYISTSNEYLAVGVGIPACSCLDAPGTHKAGYAICRSADFNSWEYVPDHRGETVYSTKTGESKEIKAPGDYPENTTTIAPLSPYDKWDGEKWVTDTEAQHSAAVDAAEAQRQSLIDAAMASISLIQLKLQAGRKLTQAETTRLNAVLDYIDAVTATDTSTAPDVIWPELPEA", 2.04),
    ("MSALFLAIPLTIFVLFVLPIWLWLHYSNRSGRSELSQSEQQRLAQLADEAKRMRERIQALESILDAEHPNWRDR [P0AFM9]", 6.04),
]

====

Assay: total protein half-life in vivo (active degradation + dilution); higher = more stable protein
Settings: wild type E. coli NCM3722; growth: N-lim chemostat; doubling time 12 h

# polymer-sequence, total protein half-life in vivo (h)
rows = [
    ("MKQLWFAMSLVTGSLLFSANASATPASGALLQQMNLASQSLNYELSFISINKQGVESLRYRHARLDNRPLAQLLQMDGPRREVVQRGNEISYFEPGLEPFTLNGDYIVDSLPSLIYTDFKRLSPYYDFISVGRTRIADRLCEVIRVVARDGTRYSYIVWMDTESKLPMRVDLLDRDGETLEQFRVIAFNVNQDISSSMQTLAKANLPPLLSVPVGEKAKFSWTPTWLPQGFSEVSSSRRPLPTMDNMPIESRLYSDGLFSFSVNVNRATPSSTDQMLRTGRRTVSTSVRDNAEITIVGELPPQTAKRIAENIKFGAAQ [P0AFX9]", 13.2),
    ("MKIAFIGEAVSGFGGMETVIRDVITTFRQQHIQSEMFFFCRNDKMDKGWLEGIKYSCSFSNIRLGFLRRAKHIHALSKWLQEYQPDIVICIDVISCLFAAKARKKSGIDMPVFSWPHFSLDHKKHAEYITCADYHLAISSGIKQQMINRGVAESTINVIFNPVETKDSVIPAPEEGETATFIYVGRMKFEGQKRVKDLLDGLSQAKGNWKLHVLGDGSDFEKCQAYGRELNIDDRIVWYGWQQYPWELVQQDIEKVSALLLTSSFEGFPMTLLEALSWGIPCISADCVSGPADIIQPDVNGHLYQPGDIAGFVTLLNKYIAGEIHIEHEKIPASIDEFYQSKYYDRLHKVIISAISRRK", 12.1),
]

====

total protein half-life in vivo for assorted sequences
Assay: total protein half-life in vivo (active degradation + dilution); higher = more stable protein
Details: wild type E. coli NCM3722; growth: C-lim chemostat; doubling time 12 h

# polymer-sequence, total protein half-life in vivo [h]
measured = [
    ("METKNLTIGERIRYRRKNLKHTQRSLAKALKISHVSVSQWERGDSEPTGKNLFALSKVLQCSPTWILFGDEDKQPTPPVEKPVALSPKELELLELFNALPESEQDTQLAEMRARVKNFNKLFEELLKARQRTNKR", 6.96),
    ("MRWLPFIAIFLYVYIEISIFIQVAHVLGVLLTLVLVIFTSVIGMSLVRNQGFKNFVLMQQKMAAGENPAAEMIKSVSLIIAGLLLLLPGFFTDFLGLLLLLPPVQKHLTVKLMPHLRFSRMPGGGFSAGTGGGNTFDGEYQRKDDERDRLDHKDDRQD", 11.7),
    ("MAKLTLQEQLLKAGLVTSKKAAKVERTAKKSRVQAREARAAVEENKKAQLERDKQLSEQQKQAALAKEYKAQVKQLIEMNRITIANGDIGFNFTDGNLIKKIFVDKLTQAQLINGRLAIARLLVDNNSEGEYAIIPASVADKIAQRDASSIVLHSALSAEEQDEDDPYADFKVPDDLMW", 4.09),
    ("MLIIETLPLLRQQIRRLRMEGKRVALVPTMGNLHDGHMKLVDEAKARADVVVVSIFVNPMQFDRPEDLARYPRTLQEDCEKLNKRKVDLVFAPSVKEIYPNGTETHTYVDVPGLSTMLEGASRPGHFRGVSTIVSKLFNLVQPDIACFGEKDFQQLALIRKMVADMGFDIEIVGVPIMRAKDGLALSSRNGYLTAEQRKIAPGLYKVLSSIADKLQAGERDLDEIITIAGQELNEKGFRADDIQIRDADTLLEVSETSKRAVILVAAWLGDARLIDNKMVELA", 11.8),
    ("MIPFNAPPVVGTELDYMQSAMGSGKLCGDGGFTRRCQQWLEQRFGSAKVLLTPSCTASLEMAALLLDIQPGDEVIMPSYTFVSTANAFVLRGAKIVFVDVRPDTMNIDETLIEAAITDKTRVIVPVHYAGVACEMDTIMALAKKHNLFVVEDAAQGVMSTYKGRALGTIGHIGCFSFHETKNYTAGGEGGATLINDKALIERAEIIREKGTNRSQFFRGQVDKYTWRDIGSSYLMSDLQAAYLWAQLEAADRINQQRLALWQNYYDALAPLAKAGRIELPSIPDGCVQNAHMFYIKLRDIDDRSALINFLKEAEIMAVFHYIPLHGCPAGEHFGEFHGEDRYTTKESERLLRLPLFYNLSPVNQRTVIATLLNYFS", 12.5),
    ("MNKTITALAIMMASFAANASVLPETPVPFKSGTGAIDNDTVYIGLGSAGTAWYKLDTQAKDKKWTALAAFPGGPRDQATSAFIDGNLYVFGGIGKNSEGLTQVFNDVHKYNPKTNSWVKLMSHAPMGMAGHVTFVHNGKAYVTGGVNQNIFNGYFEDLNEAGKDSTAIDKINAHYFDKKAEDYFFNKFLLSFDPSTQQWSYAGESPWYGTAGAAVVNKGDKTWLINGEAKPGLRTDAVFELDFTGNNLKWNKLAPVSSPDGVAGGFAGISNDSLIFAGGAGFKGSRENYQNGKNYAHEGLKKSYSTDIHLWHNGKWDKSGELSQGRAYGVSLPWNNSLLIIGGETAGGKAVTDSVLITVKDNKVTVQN", 12.6),
]

// data source = the supplement of paper PMC11246515
